- run description: stimulators of nuclear beta-catenin in C2C12, primary screen, imaging, WNT3A-conditioned medium, mouse C2C12, NPC library (AID 1117326); further: reference of the scale not given here
- conditions used: at 10 µM
Active and inactive are the calls of the source. No stated cut-off is given here; in the data, active means nuclear beta-catenin stimulation mostly above about 4.2% (no sharp cut-off); inactive means mostly below about 10%.
// classify into 1.0 = active, 0.0 = inactive

{"compound": "CC(C)[C@H]1CC[C@H](C)C[C@H]1O", "group label": 0.0}

Query: recorded result category for O=C(Cn1ccnc1[N+](=O)[O-])NCc1ccccc1 in this test 0.0

Query: recorded result category for O[C@@H](c1cc(C(F)(F)F)nc2c(C(F)(F)F)cccc12)[C@H]1CCCCN1 in this test 1.0

Query: recorded result category for NS(=O)(=O)c1ccc(NC(=O)CCC(=O)O)cc1 in this test 0.0

Query: recorded result category for O=C(O)Cc1ccccc1Oc1ccc(Cl)cc1Cl in this test 0.0

Query: recorded result category for COc1ccc2c(c1)c(CC(=O)OC/C=C(\C)CC/C=C(\C)CCC=C(C)C)c(C)n2C(=O)c1ccc(Cl)cc1 in this test 0.0
